# Target of assay: NAD-dependent protein deacetylase sirtuin-1 (Homo sapiens, UniProt Q96EB6)
# Sequence (Q96EB6 whole entry): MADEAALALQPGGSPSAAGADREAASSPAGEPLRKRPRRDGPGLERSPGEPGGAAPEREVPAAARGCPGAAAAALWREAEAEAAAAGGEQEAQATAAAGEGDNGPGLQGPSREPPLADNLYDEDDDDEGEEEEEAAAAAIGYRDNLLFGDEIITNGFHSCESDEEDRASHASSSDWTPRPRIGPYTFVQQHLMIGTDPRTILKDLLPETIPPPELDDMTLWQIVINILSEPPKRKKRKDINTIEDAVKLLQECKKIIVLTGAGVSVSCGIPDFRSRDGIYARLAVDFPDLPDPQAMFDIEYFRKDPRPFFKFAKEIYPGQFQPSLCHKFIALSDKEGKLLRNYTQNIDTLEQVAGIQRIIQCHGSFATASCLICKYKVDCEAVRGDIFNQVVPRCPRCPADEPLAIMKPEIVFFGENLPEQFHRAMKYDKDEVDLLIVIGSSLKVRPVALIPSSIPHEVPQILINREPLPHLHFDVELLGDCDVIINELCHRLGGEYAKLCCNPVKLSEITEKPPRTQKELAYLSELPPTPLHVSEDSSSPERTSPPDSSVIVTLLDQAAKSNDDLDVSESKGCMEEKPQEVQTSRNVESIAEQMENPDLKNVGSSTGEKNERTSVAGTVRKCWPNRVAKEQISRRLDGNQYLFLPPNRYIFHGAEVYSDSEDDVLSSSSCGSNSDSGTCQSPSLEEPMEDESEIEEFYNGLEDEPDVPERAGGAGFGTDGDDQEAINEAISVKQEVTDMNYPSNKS
# Protocol text: Inhibition of human recombinant GST-tagged SIRT1 after 4 hrs by homogeneous fluorescent deacetylase assay
Property label: IC50 (µM)

>>> measurement("Nc1ncnc2c1nc(-c1ccccc1)n2[C@@H]1O[C@H](COP(=O)(O)O)[C@@H](O)[C@H]1O")
31

---

# Target of assay: NAD-dependent protein deacetylase sirtuin-2 (Homo sapiens, UniProt Q8IXJ6)
# Sequence (Q8IXJ6 whole entry): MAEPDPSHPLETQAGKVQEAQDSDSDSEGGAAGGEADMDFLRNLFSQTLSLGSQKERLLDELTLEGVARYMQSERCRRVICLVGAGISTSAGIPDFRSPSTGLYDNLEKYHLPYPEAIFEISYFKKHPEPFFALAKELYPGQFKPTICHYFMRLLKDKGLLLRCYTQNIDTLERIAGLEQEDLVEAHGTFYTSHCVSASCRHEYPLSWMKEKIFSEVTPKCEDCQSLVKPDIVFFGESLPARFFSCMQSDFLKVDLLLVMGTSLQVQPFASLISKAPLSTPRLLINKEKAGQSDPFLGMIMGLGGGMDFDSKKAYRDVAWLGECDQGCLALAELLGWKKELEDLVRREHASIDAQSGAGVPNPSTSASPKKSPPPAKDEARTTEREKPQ
# Protocol text: Inhibition of human recombinant N-terminally His6-tagged SIRT2 after 4 hrs by homogeneous fluorescent deacetylase assay
pIC50: −log10 of the molar value.
Property label: pIC50

>>> measurement("NC(=O)c1ccc[n+]([C@@H]2O[C@H](COP(=O)([O-])OP(=O)(O)OC[C@H]3O[C@@H](n4c(-c5ccccc5)nc5c(N)ncnc54)[C@H](O)[C@@H]3O)[C@@H](O)[C@H]2O)c1")
3.91
>>> measurement("Cc1ccc(-c2nc3c(N)ncnc3n2[C@@H]2O[C@H](COP(=O)(O)OP(=O)([O-])OC[C@H]3O[C@@H]([n+]4cccc(C(N)=O)c4)[C@H](O)[C@@H]3O)[C@@H](O)[C@H]2O)cc1")
4.28
>>> measurement("NC(=O)c1ccc[n+]([C@@H]2O[C@H](COP(=O)([O-])OP(=O)(O)OC[C@H]3O[C@@H](n4c(-c5ccc(Cl)cc5)nc5c(N)ncnc54)[C@H](O)[C@@H]3O)[C@@H](O)[C@H]2O)c1")
4.46
